Origin of the recorded values: patent US7713994B2

target_of_assay: cyclin B/CDK1 enzyme (Homo sapiens)
Construct: purchased New England BioLabs; host or cells: Sf9 insect cells, recombinant baculovirus
Sequence (P06493 whole entry): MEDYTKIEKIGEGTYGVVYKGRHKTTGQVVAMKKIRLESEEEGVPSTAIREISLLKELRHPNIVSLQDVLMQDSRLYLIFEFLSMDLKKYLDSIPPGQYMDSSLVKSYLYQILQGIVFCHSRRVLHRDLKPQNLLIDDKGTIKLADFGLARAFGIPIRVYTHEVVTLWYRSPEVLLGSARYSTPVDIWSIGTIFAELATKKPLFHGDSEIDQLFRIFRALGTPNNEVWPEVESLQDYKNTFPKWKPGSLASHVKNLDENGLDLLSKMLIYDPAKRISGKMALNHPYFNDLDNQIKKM
Sequence (P14635 whole entry partner): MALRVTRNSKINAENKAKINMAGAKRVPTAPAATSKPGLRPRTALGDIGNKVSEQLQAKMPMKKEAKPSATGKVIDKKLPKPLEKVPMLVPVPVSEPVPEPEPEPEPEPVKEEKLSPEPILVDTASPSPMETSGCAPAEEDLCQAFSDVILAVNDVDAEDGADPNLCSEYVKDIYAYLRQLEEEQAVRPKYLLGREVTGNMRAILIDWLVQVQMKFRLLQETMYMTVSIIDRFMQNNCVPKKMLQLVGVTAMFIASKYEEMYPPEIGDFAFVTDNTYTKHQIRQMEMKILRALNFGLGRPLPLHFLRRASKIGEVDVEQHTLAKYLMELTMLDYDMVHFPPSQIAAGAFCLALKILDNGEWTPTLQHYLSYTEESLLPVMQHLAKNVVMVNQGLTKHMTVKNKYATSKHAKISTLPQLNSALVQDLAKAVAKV
assay_overview: CDK1 ELISA kinase assay (phospho-Rb ser 795 detection)
Format: biochemical
assay_context: In Vitro Enzyme Assays, read-out: CDK1 IC50
pIC50: −log10 of the molar value.
measured_endpoint: pIC50

# CC(=O)Nc1ccc(CN/C=C2\C(=O)NC(=O)c3ccc(I)cc32)cc1OC(C)=O with cyclin B/CDK1 enzyme (Homo sapiens): pIC50 is < 4.30

# COc1ccc(CNC=C2C(=O)NCc3ccccc32)cc1O with cyclin B/CDK1 enzyme (Homo sapiens): pIC50 is < 4.30

# CN1CCN(c2ccc(N/C=C3\C(=O)NC(=O)c4ccc(-c5ccc(OC(F)(F)F)cc5)cc43)cc2)CC1 with cyclin B/CDK1 enzyme (Homo sapiens): pIC50 is 4.39

# CC(=O)Oc1ccc(CN/C=C2\C(=O)NC(=O)c3ccc(Br)cc32)cc1OC(C)=O with cyclin B/CDK1 enzyme (Homo sapiens): pIC50 is < 4.30

###

Measured pIC50 accompanies every entry in the list below.
target_of_assay: cyclin B/CDK1 enzyme (Homo sapiens)
Construct: purchased New England BioLabs; host or cells: Sf9 insect cells, recombinant baculovirus
assay_overview: CDK1 ELISA kinase assay (phospho-Rb ser 795 detection)
Type: biochemical
assay_context: In Vitro Enzyme Assays, read-out: CDK1 IC50
pIC50: −log10 of the molar value.

C[C@@H]1CN(c2ccc(N/C=C3\C(=O)NC(=O)c4ccc(-c5ccoc5)cc43)cc2)C[C@H](C)N1C [Example 241] ... < 4.30
CN1CCN(c2ccc(N/C=C3\C(=O)NC(=O)c4ccc(-c5ccc(F)cc5)cc43)cc2)CC1 [Example 263] ... < 4.30
CCCOc1cnc(CNC=C2C(=O)NC(=O)c3ccc(-n4cccc4)cc32)cc1O [Example 363] ... < 4.30
O=C1NC(=O)c2ccc(Br)cc2C1=CNc1ccc(-c2c[nH]cn2)cc1 [Example 164] ... < 4.30
O=C1NC(=O)c2ccc(I)cc2/C1=C/Nc1ccc(N2CCNCC2)nc1 [Example 410] ... 4.60

Entry O=C1NC(=O)c2ccc(I)cc2/C1=C/Nc1ccc(N2CCC[C@H]2CO)c(F)c1 (stereo in doubt) [Example 426] — recorded pIC50 = < 4.30

Entry CONCCCc1ccc(N/C=C2\C(=O)NC(=O)c3ccc(Br)cc32)cc1 [Example 274] — recorded pIC50 = 4.82

###

Test system: HCT-116
assay_overview: Cytotoxicity assay (SRB), HCT-116
Format: cell-based
assay_context: Homo sapiens, HCT-116, 72 h, HCT116 cells, SRB, three days; read-out: In Vitro Cellular Activity IC50 HCT116
measured_endpoint: pIC50
Please report pIC50 as the negative decimal logarithm of the molar concentration, giving only the number.

Example molecules with recorded pIC50:
O=C1NC(=O)c2ccccc2/C1=C/NCc1ccc(O)cc1 ... 4.56
C[C@@H]1CN(c2ccc(N/C=C3\C(=O)NC(=O)c4ccc(-c5ccoc5)cc43)cc2)C[C@H](C)N1C(=O)CN(C)C ... 6.12
C=CC(=O)Nc1ccc(CN/C=C2\C(=O)NC(=O)c3ccc(Br)cc32)cc1O ... 6.77

Now consider a different molecule.
Entry O=C(/C=C\Cl)Nc1ccc(CN/C=C2\C(=O)NC(=O)c3ccc(I)cc32)cc1O — recorded pIC50 = 6.17
